# assay.remarks: Pharmacokinetic evaluation following intravenous and oral administration in rats
# Format: in vivo
# run.conditions: male, Sprague-Dawley, 5 mg/kg; rat plasma; oral gavage, 2 mg/mL at 2.5 mL/kg
result.type: Cmax (ng/mL)

a = CC(C)(C)NC(=O)c1ccc(/C=[N+](\[O-])C(C)(C)C)cc1 [Compound 18]
b = CC(C)S(=O)(=O)c1ccc(/C=[N+](\[O-])C(C)(C)C)cc1 [Compound 70]
c = CC(C)(C)/[N+]([O-])=C/c1ccc(S(=O)(=O)Nc2ccc(F)cc2)cc1 [Compound 25]
d = CC(C)(C)/[N+]([O-])=C/c1ccc(C(=O)O)cc1 [Compound 13, N-tert-Butyl-C-(4-carboxy-phenyl)nitrone]
Req: List these items ordered by Cmax, big to small. # output: labels, in the requested order
Resp: d, a, b, c

* * *

# assay.remarks: Pharmacokinetic evaluation following intravenous and oral administration in rats
# Format: in vivo
# run.conditions: male, Sprague-Dawley, plasma, 1 mg/kg; rat; intravenous administration, 1 mg/mL at 1.0 mL/kg; read-out: CI (clearance) (converted)
result.type: clearance (mL/min/kg)

Observe how each entry below is paired with its result.
CC(C)(C)/[N+]([O-])=C/c1ccc(S(N)(=O)=O)cc1 12.8
CC(C)(C)/[N+]([O-])=C/c1ccc(C(N)=O)cc1 2.33
CCS(=O)(=O)c1ccccc1/C=[N+](\[O-])C(C)(C)C 7.83

A = CC(C)(C)NS(=O)(=O)c1ccc(/C=[N+](\[O-])C2CCCCC2)cc1
B = CC(C)(C)NS(=O)(=O)c1ccccc1/C=[N+](\[O-])C(C)(C)C
Req: // which entry has the larger clearance value, A or B ? Identify your selection by its label.
Resp: A
(A: 63.3 mL/min/kg, B: 32.8 mL/min/kg)

* * *

# assay.remarks: Microsomal stability in rat liver microsomes
# Type: in vitro ADME
# run.conditions: rat liver microsomes 0.5 mg/ml, 1 mM NADPH, ~500 ng/ml compound, 37° C.
result.type: % of Nitrone Remaining at 30 min (Rat) (%)

Observe how each entry below is paired with its result.
CCN(CC)S(=O)(=O)c1ccccc1/C=[N+](\[O-])Cc1ccccc1 0
CCS(=O)(=O)c1ccc(/C=[N+](\[O-])C(C)(C)C)c(S(=O)(=O)CC)c1 100
O=S(=O)(c1ccccc1/C=[N+](\[O-])Cc1ccccc1)N1CCCCC1 0
CC(C)S(=O)(=O)c1ccc(/C=[N+](\[O-])C(C)(C)C)c(S(=O)(=O)C(C)C)c1 78

A = CC(C)(C)/[N+]([O-])=C/c1ccccc1S(=O)(=O)N1CCCCC1
B = O=S(=O)(c1ccccc1/C=[N+](\[O-])C1CCCCC1)N1CCCCC1
Req: // which entry has the larger % of Nitrone Remaining at 30 min (Rat) value, A or B ? Identify your selection by its label.
Resp: A

* * *

# assay.remarks: Pharmacokinetic evaluation following intravenous and oral administration in rats
# Assay type: in vivo
# run.conditions: male, Sprague-Dawley, 5 mg/kg; rat plasma; oral gavage, 2 mg/mL at 2.5 mL/kg
result.type: Cmax (ng/mL)

Observe how each entry below is paired with its result.
CC(C)(C)/[N+]([O-])=C/c1ccccc1S(C)(=O)=O 4730
CCN(CC)S(=O)(=O)c1ccccc1/C=[N+](\[O-])C(C)(C)C 40
CC(C)(C)/[N+]([O-])=C/c1cccnc1S(C)(=O)=O 4170

P = CCS(=O)(=O)c1ccc(/C=[N+](\[O-])C(C)(C)C)c(S(=O)(=O)CC)c1
Q = CC(C)(C)/[N+]([O-])=C/c1ccc(S(=O)(=O)N2CCOCC2)cc1
R = CCS(=O)(=O)c1ccc(/C=[N+](\[O-])C(C)(C)C)cc1
Req: Place the items in sequence of falling Cmax. # output: labels, in the requested order
Resp: R, P, Q

I = CC(C)(C)/[N+]([O-])=C/c1ccc(S(C)(=O)=O)cc1S(C)(=O)=O
II = CN1CCN(S(=O)(=O)c2ccc(/C=[N+](\[O-])C(C)(C)C)cc2)CC1
III = CC(C)(C)/[N+]([O-])=C/c1cc2ccccc2nc1S(C)(=O)=O
Req: Sort low-to-high on Cmax, please. # output: labels, in the requested order
Resp: III, II, I
(III: 12 ng/mL, II: 703 ng/mL, I: 4130 ng/mL)

* * *

# assay.remarks: Solubility measurement at pH 7.4
# Format: physicochemical
# run.conditions: aqueous buffer, thermodynamic from solid; phosphate buffer pH 7.4, room temperature; read-out: Solubility @ pH 7.4 (μg/mL)
result.type: solubility

CN1CCN(S(=O)(=O)c2ccccc2/C=[N+](\[O-])Cc2ccccc2)CC1 > 851 µg/mL

Req: Requested field: solubility. Item: "CC(C)(C)/[N+]([O-])=C/c1ccccc1S(=O)(=O)N1CCCCC1"
Resp: > 1080 µg/mL

Req: Requested field: solubility. Item: "CN1CCN(S(=O)(=O)c2ccccc2/C=[N+](\[O-])C2CCCCC2)CC1"
Resp: > 962 µg/mL

* * *

# assay.remarks: Pharmacokinetic evaluation following intravenous and oral administration in rats
# Assay type: in vivo
# run.conditions: male, Sprague-Dawley, plasma, 5 mg/kg; rat; po 2 mg/mL at 2.5 mL/kg vs iv 1 mg/mL at 1.0 mL/kg, dose-normalized; read-out: F (%) oral bioavailability
result.type: bioavailability (%)

Observe how each entry below is paired with its result.
CC(C)S(=O)(=O)c1ccc(/C=[N+](\[O-])C(C)(C)C)cc1 52.2
CS(=O)(=O)c1ncccc1/C=[N+](\[O-])Cc1ccccc1 50.2
CC(C)(C)/[N+]([O-])=C/c1ccccc1S(C)(=O)=O 70.3
CC(C)(C)NC(=O)c1ccc(/C=[N+](\[O-])C(C)(C)C)cc1 75.1

1 = CC(C)(C)/[N+]([O-])=C/c1cccnc1S(C)(=O)=O
2 = CCS(=O)(=O)c1ccc(/C=[N+](\[O-])C(C)(C)C)cc1
Req: // which entry has the larger bioavailability value, 1 or 2 ? Identify your selection by its label.
Resp: 1

* * *

# assay.remarks: Microsomal stability in human liver microsomes
# Type: in vitro ADME
# run.conditions: NADPH, 37° C.
result.type: % of Nitrone Remaining at 30 min (Human) (%)

A = CCS(=O)(=O)c1ccc(/C=[N+](\[O-])C(C)(C)C)c(S(=O)(=O)CC)c1
B = CN(c1ccccc1)S(=O)(=O)c1ccc(/C=[N+](\[O-])C(C)(C)C)cc1
C = O=S(=O)(c1ccccc1/C=[N+](\[O-])Cc1ccccc1)N1CCCc2ccccc21
Req: List these items ordered by % of Nitrone Remaining at 30 min (Human), big to small. # output: labels, in the requested order
Resp: A, B, C
(A: 100%, B: 62%, C: 0%)

* * *

# assay.remarks: Pharmacokinetic evaluation following intravenous and oral administration in rats
# Type: in vivo
# run.conditions: male, Sprague-Dawley, plasma, 1 mg/kg; rat; intravenous administration, 1 mg/mL at 1.0 mL/kg; read-out: CI (clearance) (converted)
# Method: Male Sprague-Dawley rats were given at least 24 hours acclimation before experiment initiation. During acclimation period, all animals received food and water ad libitum. […] For IV dosing, blood samples were collected (using a pre-heparinized syringe) via the carotid artery or jugular vein catheter at t=2, 5, 15, 30, 60, 120, 180, 360, and 480 minutes post dosing. […] The resulting plasma samples were then analyzed by mass spectroscopy using standard methods. […]
result.type: clearance (mL/min/kg)

1 = CC(C)(C)/[N+]([O-])=C/c1cccnc1S(C)(=O)=O [Compound 73]
2 = CC(C)(C)/[N+]([O-])=C/c1ccc(S(=O)(=O)N2CCCC2)cc1 [Compound 29]
Req: Returns the identifier with the smallest measured clearance among 1 and 2 . Identify your selection by its label.
Resp: 1
(1: 3.33 mL/min/kg, 2: 38 mL/min/kg)

* * *

# assay.remarks: Plasma protein binding (equilibrium dialysis), rat plasma
# Assay type: in vitro ADME
# run.conditions: 1 μg/mL in plasma, dialysis vs phosphate buffer pH 7.4 overnight at 37° C., read-out: Plasma Protein Binding % Bound Rat (converted)
# Experimental: Nitrone compounds of this invention were individually dissolved in DMSO to make a stock solution of 1 mg/mL. The compound was spiked into plasma to achieve a final concentration of 1 μg/mL. Spiked plasma and phosphate buffer (0.1M, pH 7.4), 200 μl each, were added to the opposite sides of the membrane in a 96-well equilibrium dialyzer. […] The samples were analyzed using a LC/MS/MS method. The percentage of free and bound nitrone compound were calculated according to the following formula: […]
result.type: fraction unbound at 1 μg/mL

compound	measurement
CCS(=O)(=O)c1ccccc1/C=[N+](\[O-])C(C)(C)C [Compound 68]	0.783
CC(C)(C)/[N+]([O-])=C/c1ccc(S(=O)(=O)N2CCOCC2)cc1 [Compound 23]	0.782
CC(C)S(=O)(=O)c1ccc(/C=[N+](\[O-])C(C)(C)C)cc1 [Compound 70]	0.718
CCS(=O)(=O)c1ccc(/C=[N+](\[O-])C(C)(C)C)cc1 [Compound 67]	0.78
CCS(=O)(=O)c1ccc(/C=[N+](\[O-])C(C)(C)C)c(S(=O)(=O)CC)c1 [Compound 64]	0.811
